Listed next: entries and their corresponding CC50 at 9 days.
experiment: Cytotoxicity in HepG2.2.15.7 cells (MTS assay); assay type: cell-based; conditions: human, 9 days post-treatment, read-out: CC50 (reduction of cell viability)
Answer with a number only, understood to be in µM.

{"columns": ["Molecule", "Units text", "CC50 at 9 days"],
 "data": [
  ["Oc1cc(Br)c(Br)c(Br)c1Oc1ccc(Br)cc1Br [Compound 2]", "µM", 10.3]
]}

[Q] Return the recorded CC50 at 9 days value; entry: Oc1cc(Br)cc(Br)c1Oc1ccc(Br)cc1Br [Compound 1]
[A] 4.19
